Target: hsst5 (Homo sapiens, UniProt P35346)
Construct: expressed in transfected cells
Sequence (P35346 whole entry): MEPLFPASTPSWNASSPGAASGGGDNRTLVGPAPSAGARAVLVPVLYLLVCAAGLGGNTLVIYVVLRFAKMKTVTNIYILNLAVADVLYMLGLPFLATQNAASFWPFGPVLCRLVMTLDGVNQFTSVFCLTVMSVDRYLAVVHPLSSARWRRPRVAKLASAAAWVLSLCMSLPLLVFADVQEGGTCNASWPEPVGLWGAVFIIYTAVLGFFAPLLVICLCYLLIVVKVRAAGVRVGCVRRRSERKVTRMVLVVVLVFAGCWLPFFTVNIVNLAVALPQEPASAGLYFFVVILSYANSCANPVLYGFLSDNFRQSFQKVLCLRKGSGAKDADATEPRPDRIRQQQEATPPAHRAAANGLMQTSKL
Assay: Somatostatin receptor radioligand binding assay, hsst5
Settings: hsst5 Ki, CHO-K1 membranes, [125I-Tyr11]SS-14
pKi: −log10 of the molar value. Numbered stars: 1 amine (or outer) side, 2 acyl side, 3 side chain; on linkers, the order of the positions; unused ones are H or OH. Bridge positions count the residues as written; N and C are the ends. Square brackets hold non-standard residues; d marks the D form. Peptide text beside a SMILES is read from it. * marks the point of attachment. X2 = CN1C[C@H](CSCC(=O)*)C[C@@H]2c3cccc4[nH]cc(c34)C[C@H]21; Pipz(1-CH2CO,4-CH2CH2NH) = O=C(CN1CCN(CCN[*:1])CC1)[*:2]; Abu = CC[C@H](N)C(=O)O

compound	pKi
CC[C@@H]1NC(=O)[C@H](CCCCN)NC(=O)[C@@H](Cc2c[nH]c3ccccc23)NC(=O)[C@H](Cc2ccc(O)cc2)NC(=O)[C@@H](NC(=O)[C@@H](Cc2ccc(O)cc2)NC(=O)[C@@H](Cc2ccc(O)cc2)NC(=O)[C@H](CCCCN)NC(=O)CN2CCN(CCNC(=O)CSC[C@@H]3C[C@@H]4c5cccc6[nH]cc(c56)C[C@H]4N(C)C3)CC2)CSSC[C@@H](C(=O)N[C@H](C(N)=O)[C@@H](C)O)NC1=O [Example 32] (X2-[Pipz(1-CH2CO,4-CH2CH2NH)]K[dY][dY]CY[dW]K[Abu]CT-NH2; disulfide 5-10)	7.86
CCCN1C[C@H](CSCC(=O)NCCCC[C@@H](NC(=O)CSC[C@@H]2C[C@@H]3c4cccc5[nH]cc(c45)C[C@H]3N(CCC)C2)C(=O)N[C@H]2CSSC[C@@H](C(=O)N[C@H](C(N)=O)[C@@H](C)O)NC(=O)[C@H](CC)NC(=O)[C@H](CCCCN)NC(=O)[C@@H](Cc3c[nH]c4ccccc34)NC(=O)[C@H](Cc3ccc(O)cc3)NC2=O)C[C@@H]2c3cccc4[nH]cc(c34)C[C@H]21	7.38
CC[C@@H]1NC(=O)[C@H](CCCCN)NC(=O)[C@@H](Cc2c[nH]c3ccccc23)NC(=O)[C@H](Cc2ccc(O)cc2)NC(=O)[C@@H](NC(=O)[C@@H](Cc2ccccc2)NC(=O)CN(C)C(=O)N[C@H]2C[C@@H]3c4cccc5[nH]cc(c45)C[C@H]3N(C)C2)CSSC[C@@H](C(=O)N[C@H](C(N)=O)[C@@H](C)O)NC1=O	7.64

###

Biological target: hsst2 (Homo sapiens)
Construct: expressed in transfected cells
Sequence (P30874 whole entry): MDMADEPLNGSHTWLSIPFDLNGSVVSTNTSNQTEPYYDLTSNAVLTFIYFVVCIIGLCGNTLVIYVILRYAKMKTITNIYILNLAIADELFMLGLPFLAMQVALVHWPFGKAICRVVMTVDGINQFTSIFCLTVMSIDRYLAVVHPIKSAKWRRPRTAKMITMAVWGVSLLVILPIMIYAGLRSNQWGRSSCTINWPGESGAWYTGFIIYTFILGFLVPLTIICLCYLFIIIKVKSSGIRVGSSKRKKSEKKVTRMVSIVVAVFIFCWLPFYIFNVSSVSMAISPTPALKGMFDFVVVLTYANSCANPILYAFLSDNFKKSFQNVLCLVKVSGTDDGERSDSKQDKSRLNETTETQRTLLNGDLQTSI
Assay: Somatostatin receptor radioligand binding assay, hsst2
Conditions: CHO-K1 membranes, [125I]MK-678; read-out: hsst2 Ki
Method: Specificity and selectivity of the somatostatin analogues used to synthesize the somatostatin-dopamine chimers were determined by a radioligand binding assay on CHO-K1 cells stably transfected with each of the SSTR subtypes, as follows. Somatostatin analogs are also described in U.S. Patent Application Publication No. 02210006790. […]
Bridge positions count the residues as written; N and C are the ends. Square brackets hold non-standard residues; d marks the D form. Peptide text beside a SMILES is read from it. * marks the point of attachment. X1 = CCCN1C[C@H](CSCC(=O)*)C[C@@H]2c3cccc4[nH]cc(c34)C[C@H]21; Dopa = N[C@@H](Cc1ccc(O)c(O)c1)C(=O)O; Abu = CC[C@H](N)C(=O)O
Ki for assorted molecules

molecule	targetOfAssay	Ki
CCCN1C[C@H](CSCC(=O)N[C@@H](CCCCN)C(=O)N[C@H](Cc2ccc(O)cc2)C(=O)N[C@H](Cc2ccc(O)cc2)C(=O)N[C@H]2CSSC[C@@H](C(=O)N[C@H](C(N)=O)[C@@H](C)O)NC(=O)[C@H](CC)NC(=O)[C@H](CCCCN)NC(=O)[C@@H](Cc3c[nH]c4ccccc34)NC(=O)[C@H](Cc3ccc(O)cc3)NC2=O)C[C@@H]2c3cccc4[nH]cc(c34)C[C@H]21 [Example 35] (X1-K[dY][dY]CY[dW]K[Abu]CT-NH2; disulfide 4-9)	hsst2 (Homo sapiens)	0.27 nM
CC[C@@H]1NC(=O)[C@H](CCCCN)NC(=O)[C@@H](Cc2c[nH]c3ccccc23)NC(=O)[C@H](Cc2ccc(O)cc2)NC(=O)[C@@H](NC(=O)[C@@H](Cc2ccccc2)NC(=O)[C@H](CCCCNC(=O)[C@@H](N)Cc2ccc(O)c(O)c2)NC(=O)[C@@H](N)Cc2ccc(O)c(O)c2)CSSC[C@@H](C(=O)N[C@H](C(N)=O)[C@@H](C)O)NC1=O [Example 18] (H-[Dopa]K(Dopa)[dF]CY[dW]K[Abu]CT-NH2; disulfide 4-9)	hsst2 (Homo sapiens)	0.36 nM
CCCN1C[C@H](CSCC(=O)NCCN2CCN(CC(=O)NCCN3CCN(CC(=O)N[C@H](Cc4ccccc4)C(=O)N[C@H]4CSSC[C@@H](C(=O)N[C@H](C(N)=O)[C@@H](C)O)NC(=O)[C@H](C(C)C)NC(=O)[C@H](CCCCN)NC(=O)[C@@H](Cc5c[nH]c6ccccc56)NC(=O)[C@H](Cc5ccc(O)c(I)c5)NC4=O)CC3)CC2)C[C@@H]2c3cccc4[nH]cc(c34)C[C@H]21	hsst2 (Homo sapiens)	1.26 nM
